# TESTED TARGET: EGFP-SD (Aequorea victoria, UniProt P42212, F64L/H231L/S65T)
# Assay type: cell-based, mouse
# MEASUREMENT SETUP: B6J-S1 mESCs, stable, Figure 5D
Give LogDC50, EGFP-SD for every item shown.
Give bare numbers, in μM.

INSERT INTO results (molecule, reading_unit, quantitative_readout) VALUES
  ('Nc1cccc2c1C(=O)N(C1CCC(=O)NC1=O)C2=O (stereo not shown) [POM, pomalidomide]', 'μM', -2.853),
  ('N#Cc1ccc(N2CCN(Cc3ccc(COc4cccc5c4CN([C@H]4CCC(=O)NC4=O)C5=O)cc3)CC2)c(F)c1 [MZG, mezigdomide]', 'μM', -3.875);

Answer for every listed entry: what is its LogDC50, EGFP-SD? The entries follow.
1. O=C1CC[C@H](N2Cc3c(OCc4ccc(CN5CCOCC5)cc4)cccc3C2=O)C(=O)N1 [IBR, iberdomide]
2. Cc1nc2cccc(N)c2c(=O)n1C1CCC(=O)NC1=O (stereo not shown) [AVA, avadomide]

1: -3.579; 2: -2.1

###

# TESTED TARGET: EGFP-SD (Aequorea victoria, UniProt P42212, F64L/H231L/S65T)
# Format: cell-based, mouse
# MEASUREMENT SETUP: CrbnI391V/I391V mESCs, stable, Figure 5E
REPORTED METRIC: Bottom, EGFP-SD
One number for each entry.

INSERT INTO results (compound, quantitative_readout) VALUES
  ('Cc1nc2cccc(N)c2c(=O)n1C1CCC(=O)NC1=O (stereo not shown) [AVA, avadomide]', 0.06758),
  ('N#Cc1ccc(N2CCN(Cc3ccc(COc4cccc5c4CN([C@H]4CCC(=O)NC4=O)C5=O)cc3)CC2)c(F)c1 [MZG, mezigdomide]', 0.0164),
  ('Nc1cccc2c1C(=O)N(C1CCC(=O)NC1=O)C2=O (stereo not shown) [POM, pomalidomide]', 0.06229);

Now for the compound whose Bottom, EGFP-SD we want.
Could you share which Bottom, EGFP-SD value was measured for O=C1CC[C@H](N2Cc3c(OCc4ccc(CN5CCOCC5)cc4)cccc3C2=O)C(=O)N1 [IBR, iberdomide] ? 0.04851

###

# TESTED TARGET: EGFP-SD (Aequorea victoria, UniProt P42212, F64L/H231L/S65T)
# Assay type: cell-based, mouse
# MEASUREMENT SETUP: read-out: DC50, EGFP-SD; CrbnI391V/I391V mESCs, stable, Figure 5E
Give DC50 for every item shown.
Give the number first and the unit second.

// worked examples, DC50 included
INSERT INTO assay_data (compound, reported_metric, result) VALUES
  ('N#Cc1ccc(N2CCN(Cc3ccc(COc4cccc5c4CN([C@H]4CCC(=O)NC4=O)C5=O)cc3)CC2)c(F)c1 [MZG, mezigdomide]', 'DC50', '0.0651 nM'),
  ('Cc1nc2cccc(N)c2c(=O)n1C1CCC(=O)NC1=O (stereo not shown) [AVA, avadomide]', 'DC50', '6.5 nM'),
  ('Nc1cccc2c1C(=O)N(C1CCC(=O)NC1=O)C2=O (stereo not shown) [POM, pomalidomide]', 'DC50', '1.02 nM');

Now for the compound whose DC50 we want.
Could you share which DC50 value was measured for O=C1CC[C@H](N2Cc3c(OCc4ccc(CN5CCOCC5)cc4)cccc3C2=O)C(=O)N1 [IBR, iberdomide] ? 0.067 nM
